subject-of-test: 14-3-3ζ:BAD-112-136F interactions (Homo sapiens, UniProt P63104)
Construct: expressed in transfected cells; host or cells: NIH-3T3 fibroblasts, bi-directional pBI-CMV1 plasmid
Sequence (P63104 1-245): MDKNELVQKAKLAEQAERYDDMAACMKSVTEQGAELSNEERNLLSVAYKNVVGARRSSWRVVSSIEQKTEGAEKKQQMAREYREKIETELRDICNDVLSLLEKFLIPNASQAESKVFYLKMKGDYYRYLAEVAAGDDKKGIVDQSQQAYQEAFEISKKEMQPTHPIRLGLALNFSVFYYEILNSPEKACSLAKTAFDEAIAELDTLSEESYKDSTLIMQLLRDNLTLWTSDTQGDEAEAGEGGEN
experiment: BRET sensor screen for disruption of 14-3-3ζ-Rluc8:BAD-112-136F-mCitrine in living NIH-3T3 cells
Type: cell-based, murine
condition-details: NIH3T3, 3 h, NIH-3T3 expressing BRET sensor; 20 µM, 3 h; read-out: BRET reduction on NIH-3T3
# inhibition at 20 µM annotations
Kindly provide the numeric value in % only, without the unit symbol.

Task item: Output inhibition at 20 µM of CC1=C(C(=O)OC(C)C)C(c2cccc([N+](=O)[O-])c2)C(C(=O)OC2CN(C(c3ccccc3)c3ccccc3)C2)=C(N)N1 (stereo not shown) [Azelnidipine]
Reply: 40.2

Task item: Output inhibition at 20 µM of Cc1ccc(Sc2ccccc2N2CCNCC2)c(C)c1 [Vortioxetine (Lu AA21004) HBr, Vortioxetine]
Reply: 35.4

Task item: Output inhibition at 20 µM of CCOc1nc2cccc(C(=O)OC(C)OC(=O)OC3CCCCC3)c2n1Cc1ccc(-c2ccccc2-c2nnn[nH]2)cc1 (stereo not shown) [Candesartan Cilexetil]
Reply: 44.9

###

Tested on: NIH-3T3 cells
experiment: Hoechst/propidium iodide cell death assay in NIH-3T3
Assay type: cell-based
condition-details: Mus musculus, NIH3T3, 24 h, 20 µM, 24 h; read-out: Percentage of cell death % 24h NIH3t3
readout-type: cytotoxicity at 20 µM (%)
Kindly provide the numeric value in % only, without the unit symbol.

Task item: State cytotoxicity at 20 µM (NIH-3T3 cells) of `Cn1ncc(Cl)c1-c1cc(C(=O)N[C@H](CN)Cc2cccc(F)c2)sc1Cl` .
Reply: 57.7

Task item: State cytotoxicity at 20 µM (NIH-3T3 cells) of `C=C1/C(=C\C=C2/CCC[C@]3(C)[C@@H]([C@H](C)/C=C/[C@@H](O)C4CC4)CC[C@@H]23)C[C@@H](O)C[C@@H]1O` .
Reply: 0.552

Task item: State cytotoxicity at 20 µM (NIH-3T3 cells) of CCOC(=O)C1=C(C)NC(C)=C(C(=O)OC)C1c1cccc(Cl)c1Cl (stereo not drawn) .
Reply: 6.69

Task item: State cytotoxicity at 20 µM (NIH-3T3 cells) of `CC(C)OC(=O)CCC/C=C\C[C@@H]1[C@@H](CC[C@@H](O)CCc2ccccc2)[C@H](O)C[C@@H]1O` .
Reply: 1.31

Task item: State cytotoxicity at 20 µM (NIH-3T3 cells) of CCc1cc(/C(C)=N/OCc2ccc(C3CCCCC3)c(C(F)(F)F)c2)ccc1CN1CC(C(=O)O)C1 [BAF312 (Siponimod), Siponimod] .
Reply: 0.738

Task item: State cytotoxicity at 20 µM (NIH-3T3 cells) of Clc1ccc(COC(Cn2ccnc2)c2ccc(Cl)cc2Cl)cc1 (stereo not drawn) [Econazole nitrate] .
Reply: 14.2

Further cases:
Task item: State cytotoxicity at 20 µM (NIH-3T3 cells) of `C[C@H](CCC(=O)O)[C@H]1CC[C@H]2[C@@H]3[C@H](O)C[C@@H]4C[C@H](O)CC[C@]4(C)[C@H]3CC[C@]12C` .
Reply: 0.372

Task item: State cytotoxicity at 20 µM (NIH-3T3 cells) of `NC(=O)N1CCC(CC(=O)N2CCC([C@H]3c4ncc(Br)cc4CCc4cc(Cl)cc(Br)c43)CC2)CC1` .
Reply: 36.3

Task item: State cytotoxicity at 20 µM (NIH-3T3 cells) of CC(C)Oc1ccc(-c2nc(-c3cccc4c3CC[C@@H]4NCCO)no2)cc1C#N [Ozanimod (RPC1063), Ozanimod] .
Reply: 89.9

Task item: State cytotoxicity at 20 µM (NIH-3T3 cells) of `CC1(C)[C@@H](O)CC[C@]2(C)[C@H]3C(=O)C=C4[C@@H]5C[C@@](C)(C(=O)O)CC[C@]5(C)CC[C@@]4(C)[C@]3(C)CC[C@@H]12` .
Reply: 4.15

Task item: State cytotoxicity at 20 µM (NIH-3T3 cells) of `CCOC(=O)C1=C(C)NC(C)=C(C(=O)OCC)C1c1ccccc1/C=C/C(=O)OC(C)(C)C` .
Reply: 0.275

Task item: State cytotoxicity at 20 µM (NIH-3T3 cells) of Clc1ccc(C(Cn2ccnc2)OCc2ccsc2Cl)c(Cl)c1 (stereo not drawn) .
Reply: 7.78

Task item: State cytotoxicity at 20 µM (NIH-3T3 cells) of CC(C)(O)c1ccccc1CC[C@@H](SCC1(CC(=O)O)CC1)c1cccc(/C=C/c2ccc3ccc(Cl)cc3n2)c1 [Montelukast Sodium] .
Reply: 14.8

Task item: State cytotoxicity at 20 µM (NIH-3T3 cells) of `CCN1CCN(c2cc(-c3ccc(F)cc3)c3c(n2)CCCCCC3)CC1` .
Reply: 1.45

Task item: State cytotoxicity at 20 µM (NIH-3T3 cells) of Clc1ccc(CSC(Cn2ccnc2)c2ccc(Cl)cc2Cl)cc1 (stereo not drawn) [Sulconazole Nitrate] .
Reply: 10.8

###

subject-of-test: His-14-3-3ζ (Homo sapiens, UniProt P63104)
Construct: made in house; host or cells: Escherichia coli BL21 LOBSTR-RIL
experiment: Surface plasmon resonance (SPR) on immobilized His-14-3-3ζ
Assay type: binding
condition-details: SPR curve at 0.005 mM ligand
readout-type: Bmax ([Signal (RU)])
Kindly provide the numeric value in RU only, without the unit symbol.

Task item: Output Bmax ([Signal (RU)]) of `CCCCCCCCc1ccc(CCC(N)(CO)CO)cc1`
Reply: 227.4

Task item: Output Bmax ([Signal (RU)]) of `OC1(c2ccc(Cl)c(C(F)(F)F)c2)CCN(CCCC(c2ccc(F)cc2)c2ccc(F)cc2)CC1`
Reply: 72.64

Task item: Output Bmax ([Signal (RU)]) of `CCCCCCOC(=O)c1ccc(Nc2c([N+](=O)[O-])cc(C(=O)O)cc2[N+](=O)[O-])cc1`
Reply: 100.98

Turning now to a further compound:
Task item: Output Bmax ([Signal (RU)]) of CC(C)(C)c1ccc(C(O)CCCN2CCC(C(O)(c3ccccc3)c3ccccc3)CC2)cc1 (stereo not shown)
Reply: 144.99

###

subject-of-test: 14-3-3ζ:BAD-112-136F interactions (Homo sapiens, UniProt P63104)
Construct: expressed in transfected cells; host or cells: NIH-3T3 fibroblasts, bi-directional pBI-CMV1 plasmid
experiment: BRET sensor screen for disruption of 14-3-3ζ-Rluc8:BAD-112-136F-mCitrine in living NIH-3T3 cells
Assay type: cell-based, murine
Set-up: dose or concentration left out as unconfirmed
condition-details: NIH3T3, 3 h, NIH-3T3 cells; hits from the primary screen; read-out: BRET reduction on NIH-3T3
readout-type: inhibition (%)
Kindly provide the numeric value in % only, without the unit symbol.

Task item: Output inhibition of CCOC(=O)N1CCC(=C2c3ccc(Cl)cc3CCc3cccnc32)CC1 [Loratadine]
Reply: 25.5

###

subject-of-test: 14-3-3ζ:BAD-112-136F interactions (Homo sapiens, UniProt P63104)
Construct: expressed in transfected cells; host or cells: NIH-3T3 fibroblasts, bi-directional pBI-CMV1 plasmid
experiment: BRET sensor screen for disruption of 14-3-3ζ-Rluc8:BAD-112-136F-mCitrine in living NIH-3T3 cells
Assay type: cell-based, murine
Parameters: dose or concentration left out as unconfirmed
condition-details: NIH3T3, 3 h, NIH-3T3 cells; hits from the primary screen; read-out: BRET reduction on NIH-3T3
Where a name gives a salt, the structure may show the parent alone.
# inhibition annotations
Kindly provide the numeric value in % only, without the unit symbol.

Below, 2 compounds whose answers are already recorded.
Task item: Output inhibition of O=C1Cc2cc(CCN3CCN(c4nsc5ccccc45)CC3)c(Cl)cc2N1 [Ziprasidone hydrochloride monohydrate]
Reply: 25.5

Task item: Output inhibition of C=C1/C(=C\C=C2/CCC[C@]3(C)[C@@H]([C@H](C)/C=C/[C@@H](O)C4CC4)CC[C@@H]23)C[C@@H](O)C[C@@H]1O [Calcipotriol]
Reply: 31.7

Further cases:
Task item: Output inhibition of NC(=O)N1CCC(CC(=O)N2CCC([C@H]3c4ncc(Br)cc4CCc4cc(Cl)cc(Br)c43)CC2)CC1 [Lonafarnib]
Reply: 40.6

###

# cytotoxicity at 20 µM annotations
System: HT-29 cells
experiment: Hoechst/propidium iodide cell death assay in HT-29
Format: cell-based, human
condition-details: Homo sapiens, HT-29, 48 h, HT-29; 48h; 20 μM; read-out: Percentage of cell death % 48h, HT-29
Where a name gives a salt, the structure may show the parent alone.
Kindly provide the numeric value in % only, without the unit symbol.

Below, 6 compounds whose answers are already recorded.
Task item: Output cytotoxicity at 20 µM of `COc1cc2c(Oc3ccc4[nH]c(C)cc4c3F)ncnc2cc1OCCCN1CCCC1`
Reply: 83.5

Task item: Output cytotoxicity at 20 µM of `C=C1/C(=C\C=C2/CCC[C@]3(C)[C@@H]([C@H](C)/C=C/[C@@H](O)C4CC4)CC[C@@H]23)C[C@@H](O)C[C@@H]1O`
Reply: 0.922

Task item: Output cytotoxicity at 20 µM of Clc1ccc(COC(Cn2ccnc2)c2ccc(Cl)cc2Cl)cc1 (stereo not shown) [Econazole nitrate]
Reply: 13

Task item: Output cytotoxicity at 20 µM of `Clc1ccccc1C(c1ccccc1)(c1ccccc1)n1ccnc1`
Reply: 0.787

Task item: Output cytotoxicity at 20 µM of `Cc1ccc(Sc2ccccc2N2CCNCC2)c(C)c1`
Reply: 52.1

Task item: Output cytotoxicity at 20 µM of CN(C)CCCN1c2ccccc2CCc2ccc(Cl)cc21 [Clomipramine HCl]
Reply: 2.3

Further cases:
Task item: Output cytotoxicity at 20 µM of CCc1cc(/C(C)=N/OCc2ccc(C3CCCCC3)c(C(F)(F)F)c2)ccc1CN1CC(C(=O)O)C1 [BAF312 (Siponimod), Siponimod]
Reply: 1.58
